- systemTested: recombinant His-tagged cytoplasmic domains of TRKA receptor (NTRK1, PV3144, aa 441-796) (Homo sapiens, UniProt P04629)
- Construct: aa 441-796; His
- Sequence (P04629 441-796): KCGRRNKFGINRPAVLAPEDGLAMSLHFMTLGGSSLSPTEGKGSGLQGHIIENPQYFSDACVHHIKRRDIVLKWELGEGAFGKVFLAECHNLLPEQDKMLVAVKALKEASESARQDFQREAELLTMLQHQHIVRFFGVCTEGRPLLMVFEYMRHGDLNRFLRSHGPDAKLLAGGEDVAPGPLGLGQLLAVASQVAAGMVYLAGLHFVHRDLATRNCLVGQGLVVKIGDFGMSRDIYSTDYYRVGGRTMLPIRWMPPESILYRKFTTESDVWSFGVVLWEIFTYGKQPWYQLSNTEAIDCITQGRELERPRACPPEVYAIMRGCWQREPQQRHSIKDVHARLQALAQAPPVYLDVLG
- assay: Isolated TRK enzyme assay (HTRF KinEASE-TK, PV3144 TrkA enzyme assay)
- experimentalSetup: 4 nM enzyme, 40 uM ATP, 35 min, arithmetic mean where more than one reading
- Description: Isolated TRK Enzyme assays use the HTRF KinEASE-TK kit (Cisbio Cat #62TK0PEJ) with recombinant His-tagged cytoplasmic domains of TRKA receptor sourced from Invitrogen (see table below). […] After the Detection Reagent addition, plates are covered and incubated at room temperature for 60 minutes. […] Test compound data are expressed as percentage inhibition defined by HPE and ZPE values for each plate. […] Where more than one reading was taken, the arithmetic mean is presented.
experimentalReadout: IC50 (nM)
Lab book: enter the figure in nM, no units written.

Name the reported IC50 value associated with the molecule Cn1cc(-c2ccc(OC3CCN(C(=O)Cc4ccc(C(C)(C)C)cc4)CC3)c(C(N)=O)c2)cn1
9.8

So what's the measured IC50 for this one? NC(=O)c1cc(-c2cnn(C3CS(=O)(=O)C3)c2)cnc1O[C@H]1CCN(C(=O)Cc2ccc(OC(F)(F)F)cc2)C[C@H]1F (racemic) [Example 38]
2

So what does the record say about IC50 for C[C@@H](N)c1ccc(-c2ccc(OC3CCN(C(=O)Cc4ccc(OC(F)(F)F)cc4)CC3)c(C(N)=O)c2)cc1 ?
2.8

Would you kindly share the measured IC50 for NC(=O)c1cc(-c2cn[nH]c2)cnc1O[C@H]1CCN(C(=O)Cc2ccc(OC(F)(F)F)cc2)C[C@H]1F ?
1.3

Can you share its IC50? I mean this molecule: Cn1cnc(-c2ccc(OC3CCN(C(=O)Cc4ccc(OC(C)(F)F)cn4)CC3)c(C(N)=O)c2)c1
17.3

What value of IC50 has been reported for the following molecule? Cc1n[nH]c(C)c1-c1cnc(O[C@H]2CCN(C(=O)Cc3ccc(OC4CC4)cn3)C[C@@H]2F)c(C(N)=O)c1
19.4

Consider the molecule shown here: CS(=O)(=O)Cn1cc(-c2cnc(OC3CCN(C(=O)Cc4ccc(OC(F)(F)F)cc4)CC3)c(C(N)=O)c2)cn1 What is its recorded IC50?
5.7
